Attribution: PubChem BioAssay

Answer each item with its documented composite z-score.
- Test system: Human papillomavirus type 1a E7 protein (residues 1-88)
- Test description: HPV1a E7 small-molecule binders, primary screen, biochemical, small-molecule microarray, residues 1-88, 635 nm (AID 1129)
- Condition label: small-molecule microarray binding, fluorescence 635 nm; higher = more signal

Lookup result for CCOC(=O)C[C@H]1[C@H](OC(=O)Cc2ccc3c(c2)OCO3)[C@@H](NC(=O)c2ccccc2)c2cc(OCCCO)ccc2N1C(=O)c1ccc2ccccc2n1 ; measured composite z-score: 0.445

Memo: CC(C)(C)OC(=O)CC[C@@]1(C(=O)N2CCCCC2)N=C(c2ccc(OCCCO)cc2)O[C@@H]1c1ccccc1CN=[N+]=[N-] , reported composite z-score: 1.21

Recorded composite z-score (molecule C=C(CCCC)/C(=C/C[C@@H](OC(=O)c1ccncc1)c1ccccc1OCCO)c1cc(C(=O)OC)ccc1OC ): 1.22

In plain terms, C[N+](C)(C)CCCCCCNC(=O)[C@@H]1C[C@@H]2C(=O)NCC(=O)N2[C@@H]1c1cccc(OCCO)c1 has a documented composite z-score of 0.044

Reported composite z-score for COC(=O)[C@@]1(Cc2ccc(F)cc2)[C@H]2c3cc(C(=O)N(C)C)n(Cc4ccc(C)c(F)c4F)c3C[C@H]2CN1C(=O)c1ccccc1 was 0.864

COCCCNC(=O)[C@@H]1c2ccccc2C(=O)N(Cc2cc(F)cc(C(F)(F)F)c2)[C@H]1c1ccc(CO)cc1 yielded composite z-score of -1.06

// composite z-score value for COc1cc(C(O)C2C=CC3C(=O)N(C)C(=O)C3N2NC(=O)OC(C)(C)C)cc(OC)c1OC (configuration not stated) : 1.21

* * *

- Target under test: Alpha-bungarotoxin (Bungarus multicinctus)
- Test description: compounds binding labelled alpha-BTX control protein – biochemical, small-molecule microarray, Alexa647 label, 635/667 nm fluorescence, artefact control for SMM control protein annotation, profiling panel (AID 1117)
- Condition label: alpha-BTX-A647 binding fluorescence, higher = more signal
Measurement name: composite z-score
Note: the reply should be a number with no unit written.

In plain terms, C=CCOC(=O)[C@@H]1[C@H]2C(=O)O[C@H](c3ccccc3)[C@H](c3ccccc3)N2[C@H](c2ccc(OCCOC(=O)[C@@H]3C[C@@H]4C(=O)N5CCC[C@H]5C(=O)N4[C@@H]3c3cccc(OCCO)c3)cc2)[C@@]12C(=O)Nc1ccc(I)cc12 has a documented composite z-score of 1.11

# compound COCCOC(=O)N1C(=O)[C@@]2(c3ccccc31)[C@H](c1ccccc1OCCO)N1[C@H](c3ccccc3)[C@H](c3ccccc3)OC(=O)[C@H]1[C@@H]2C(=O)N1CCc2cc(OC)c(OC)cc2C1 ; its composite z-score = 0.91

What the record says about C[C@]12C(=O)N(CCCCCO)[C@@H]3C(=O)N(c4ccc(Cl)cc4)CC=CC31O[C@@H]1/C=C\CCCOC(=O)C12 (stereo partly specified) : composite z-score is -0.797

Reported composite z-score for C=C(COC)C(=O)CC[C@H](OC(=O)c1ccccc1-c1ccccc1C(=O)O)c1ccc(OCCO)cc1 was 1.16

Per the record, CO[C@H]1O[C@H](CO)[C@@H](OC(=O)Nc2ccc(C(F)(F)F)cc2)[C@H](OC(=O)Nc2ccccc2)[C@H]1OC(=O)Nc1ccccc1 has composite z-score of 2.69

CCCCC(=C=CC[C@H](O)c1cccc(OCCO)c1)C[C@H](O)COCc1ccccc1 yielded composite z-score of -0.283
